Test name: qHTS assay to test for compound auto fluorescence at 460 nm (blue) in HEK293 cell free culture (AID 720681); also: % is scaled to controls: 0 for no effect and ±100 for the full control effect
Protocol conditions: cell-free medium, autofluorescence 405/460 nm (blue); series mostly up to 91.3 µM
The source made the active and inactive calls. Calls follow the shape of the dose curve; as a rule, active = well fitted curve in the direction sought with a large enough effect in the repeat runs; inconclusive = weak or mixed curves; inactive = flat fitted curve, though single readings scatter.
Reported endpoint: fluorescence, % of fluorescent control

Illustrative cases are given below, each with its answer.
>>> measured_value("CCCCN1CCCC[C@H]1C(=O)Nc1c(C)cccc1C")
"inactive"
>>> measured_value("O=c1cccccc1O")
"inactive"
>>> measured_value("CCCCCCCCCCn1cc[n+](CCCCCCCCCC)c1C")
"inactive"
>>> measured_value("CN(C)C(=O)C1(N2CCCCC2)CCN(CC[C@@]2(c3ccc(Cl)c(Cl)c3)CN(C(=O)c3ccccc3)CCO2)CC1")
"inactive"
>>> measured_value("Cc1cc2c(cc1C(F)(F)F)N(C(=O)Nc1ccc(Oc3cccnc3C)nc1)CC2")
"inactive"
>>> measured_value("Cc1cc(C2CCCCC2)n(O)c(=O)c1")
"-0.0092% [at 18.6 µM] (inactive)"
>>> measured_value("CCCCCCCCNC(C)C(O)c1ccc(SC(C)C)cc1 (configuration not stated)")
"inactive"
>>> measured_value("CC(=O)SC[C@@H](Cc1ccccc1)C(=O)NCC(=O)OCc1ccccc1")
"0.0019% [at 18.6 µM] (inactive)"
>>> measured_value("CCCCCCCCCCCCc1ccc(O)cc1")
"inactive"
>>> measured_value("OCCN1CCN(CC/C=C2/c3ccccc3Sc3ccc(C(F)(F)F)cc32)CC1")
"inactive"

fluorescence, % of fluorescent control for `Cc1ccc(O)c2ncccc12` is inactive

Per the record, `COc1c(C)c2c(c(O)c1C/C=C(\C)CCC(=O)O)C(=O)OC2` has fluorescence, % of fluorescent control of -0.004% [at 18.6 µM] (inactive)
